Assignment: determine reported stability, Accuracy (measured versus nominal concentration) for the given compounds.
test: Stability of the five compounds in SD rat plasma (QC samples, UHPLC-ESI-MS/MS); type: in vitro ADME; settings: SD rat plasma, nominal 1000 ng/mL, 3 freeze-thaw cycles, n=5
Output spec: scalar in %, unitless text.

Which stability, Accuracy (measured versus nominal concentration) is listed for CC1=C[C@H]2[C@@H](CC1)[C@H](C)CC[C@H]2[C@@H](C)C(=O)O [DHAA, Dihydroartemisinic acid] ?
91.43

Please answer likewise for C[C@@H]1CC[C@H]2[C@@H](C)C(=O)O[C@@H]3O[C@@]4(C)CC[C@@H]1[C@]32OO4 [ART, Artemisinin, reference compound]
105.28

Now consider C=C1CC[C@@H]2[C@H]3[C@@H](CC[C@H]2C)[C@@H](C)C(=O)O[C@H]13 [ARTI, Arteannuin I] .
94.19

Same thing, different compound: C=C(C(=O)O)[C@@H]1CC[C@@H](C)[C@@H]2CCC(C)=C[C@@H]21 [AA, Artemisinic acid]
94.77

Next entry: C[C@@H]1CC[C@H]2[C@@H](C)C(=O)O[C@@H]3O[C@@]4(C)CC[C@@H]1[C@]32O4 [DEART, Deoxyartemisinin]
106.94
